Molecular target: Adenosine receptor A1 (Homo sapiens, UniProt P30542); note: assay procedure not described here
Sequence (P30542 whole entry): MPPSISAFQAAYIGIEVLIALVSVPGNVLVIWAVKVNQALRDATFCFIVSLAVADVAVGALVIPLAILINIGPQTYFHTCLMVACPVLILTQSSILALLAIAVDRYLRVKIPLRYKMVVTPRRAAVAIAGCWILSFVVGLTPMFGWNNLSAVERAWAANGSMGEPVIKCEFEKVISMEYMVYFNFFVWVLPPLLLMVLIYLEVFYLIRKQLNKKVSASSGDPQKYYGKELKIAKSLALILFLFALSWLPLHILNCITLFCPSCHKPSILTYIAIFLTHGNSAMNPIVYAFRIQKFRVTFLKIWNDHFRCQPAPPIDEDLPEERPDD
Test Readout: AC50

Example results:
Compound: CNCC[C@@H](Oc1ccccc1C)c1ccccc1
Test Readout: AC50
Test Value: > 30 µM
--
Compound: CN(C)C(=O)Oc1cc(OC(=O)N(C)C)cc(C(O)CNC(C)(C)C)c1 (stereo not drawn)
Test Readout: AC50
Test Value: > 30 µM
--
Compound: C#C[C@]1(O)CC[C@H]2[C@@H]3CCC4=CC(=O)CCC4=C3C=C[C@@]21CC
Test Readout: AC50
Test Value: > 30 µM
--
Compound: COc1cc2c(Nc3ccc(Br)cc3F)ncnc2cc1OCC1CCN(C)CC1
Test Readout: AC50
Test Value: > 30 µM
--
Compound: CCCCCCOC(=O)CCC(=O)CN [HEXAMINOLEVULINATE]
Test Readout: AC50
Test Value: > 30 µM

// AC50 lookup, key: `O=C(O)c1ccccc1Nc1cccc(C(F)(F)F)c1`
> 30 µM

// AC50 lookup, key: `CCn1cc(C(=O)O)c(=O)c2cc(F)c(N3CCN(C)CC3)cc21`
> 30 µM

// AC50 lookup, key: `CCCOC(C(=O)OC1CCN(C)CC1)(c1ccccc1)c1ccccc1`
> 30 µM

// AC50 lookup, key: `C=C(C)[C@@H]1CCC(C)=C[C@H]1c1c(O)cc(CCCCC)cc1O`
> 30 µM

// AC50 lookup, key: `CNCCCC1c2ccccc2C=Cc2ccccc21`
> 10 µM

// AC50 lookup, key: Cc1cccc(N(C)C(=S)Oc2ccc3ccccc3c2)c1 [TOLNAFTATE]
> 10 µM

// AC50 lookup, key: `Cc1ccc(=O)n(-c2ccccc2)c1`
> 30 µM

// AC50 lookup, key: NS(=O)(=O)c1cc2c(cc1C(F)(F)F)NC(Cc1ccccc1)NS2(=O)=O (stereo not drawn) [BENDROFLUMETHIAZIDE]
> 10 µM

// AC50 lookup, key: O=C1Nc2ccc(Cl)cc2C(c2ccccc2)=NC1O (stereo not drawn)
> 30 µM

// AC50 lookup, key: COc1cccc(N(C)C(=S)Oc2ccc3c(c2)CCCC3)n1 [LIRANAFTATE]
> 30 µM

// AC50 lookup, key: `CN1[C@@H]2CC[C@H]1C[C@@H](OC(=O)c1c[nH]c3ccccc13)C2`
> 30 µM

// AC50 lookup, key: CN1C[C@H](C(=O)N[C@]2(C)O[C@@]3(O)[C@@H]4CCCN4C(=O)[C@H](Cc4ccccc4)N3C2=O)C[C@@H]2c3cccc4[nH]cc(c34)C[C@H]21 [DIHYDROERGOTAMINE]
> 30 µM

// AC50 lookup, key: `CC(=N)N1CC[C@H](SC2=C(C(=O)O)N3C(=O)[C@H]([C@@H](C)O)[C@H]3C2)C1`
> 300 µM
